Where do these numbers come from? They come from patent US9834571B2.

Biological target: human EGFR (native sequence) (Homo sapiens)
Sequence (P00533 25-1210): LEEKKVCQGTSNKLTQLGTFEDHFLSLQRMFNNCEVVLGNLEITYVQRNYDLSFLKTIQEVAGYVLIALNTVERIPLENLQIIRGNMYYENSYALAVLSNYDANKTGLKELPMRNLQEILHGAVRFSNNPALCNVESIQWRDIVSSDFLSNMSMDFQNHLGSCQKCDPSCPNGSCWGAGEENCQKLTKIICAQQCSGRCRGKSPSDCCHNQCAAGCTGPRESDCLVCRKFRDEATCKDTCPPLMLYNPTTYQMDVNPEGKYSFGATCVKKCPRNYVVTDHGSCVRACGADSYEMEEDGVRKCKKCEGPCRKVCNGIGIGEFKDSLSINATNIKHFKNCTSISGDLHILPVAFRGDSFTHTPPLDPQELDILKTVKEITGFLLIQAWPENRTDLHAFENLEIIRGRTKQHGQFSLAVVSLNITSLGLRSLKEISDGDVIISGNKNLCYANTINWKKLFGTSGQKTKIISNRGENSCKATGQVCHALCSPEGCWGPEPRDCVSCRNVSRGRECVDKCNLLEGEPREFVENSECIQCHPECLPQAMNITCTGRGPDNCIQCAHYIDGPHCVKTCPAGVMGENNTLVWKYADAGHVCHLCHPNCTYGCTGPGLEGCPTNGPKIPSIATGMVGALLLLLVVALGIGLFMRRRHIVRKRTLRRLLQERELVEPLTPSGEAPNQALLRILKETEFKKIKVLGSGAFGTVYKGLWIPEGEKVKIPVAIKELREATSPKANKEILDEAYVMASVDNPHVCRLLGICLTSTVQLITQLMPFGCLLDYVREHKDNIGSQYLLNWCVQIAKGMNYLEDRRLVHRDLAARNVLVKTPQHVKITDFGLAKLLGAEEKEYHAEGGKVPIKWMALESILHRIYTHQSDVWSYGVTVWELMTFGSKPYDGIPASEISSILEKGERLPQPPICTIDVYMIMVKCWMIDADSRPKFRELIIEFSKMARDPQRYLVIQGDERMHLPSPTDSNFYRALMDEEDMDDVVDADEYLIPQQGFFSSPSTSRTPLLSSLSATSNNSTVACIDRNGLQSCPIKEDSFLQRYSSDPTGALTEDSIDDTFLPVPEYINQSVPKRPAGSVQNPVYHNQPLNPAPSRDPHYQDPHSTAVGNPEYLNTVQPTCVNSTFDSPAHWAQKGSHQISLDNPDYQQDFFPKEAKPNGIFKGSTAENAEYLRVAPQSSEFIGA
Assay: Kinase inhibitory activity against human EGFR (native sequence)
Format: biochemical
Conditions: human EGFR native sequence; 10 μM ATP; read-out: IC50 for kinase inhibition, EGFR

>  <COMPOUND>
C=CC(=O)Nc1cc(Nc2ncc(Cl)c(Nc3ccccc3P(C)(C)=O)n2)c(OC)cc1C#CCN(CC)CC

>  <IC50>
≥ 250 nM

$$$$
>  <COMPOUND>
C=CC(=O)Nc1cc(Nc2ncc(Cl)c(Nc3ccccc3P(C)(C)=O)n2)c(OC)cc1N1CCC(N(C)CCOC)C1 (stereo not drawn)

>  <IC50>
< 50 nM

$$$$
>  <COMPOUND>
C=C(CN1CCN(S(C)(=O)=O)CC1)C(=O)Nc1ccc(OC)c(Nc2ncc(Cl)c(Nc3ccccc3P(C)(C)=O)n2)c1

>  <IC50>
< 50 nM

$$$$
>  <COMPOUND>
C=C(C(=O)Nc1ccc(OC)c(Nc2ncc(Cl)c(Nc3ccccc3P(C)(C)=O)n2)c1)C(F)(F)F

>  <IC50>
< 50 nM

$$$$
>  <COMPOUND>
C=CC(=O)Nc1cc(Nc2ncc(Cl)c(Nc3ccccc3P(C)(C)=O)n2)c(OC)cc1N(C)CCN(C)CCF

>  <IC50>
< 50 nM

$$$$
>  <COMPOUND>
C=CC(=O)Nc1cc(Nc2ncc(Cl)c(Nc3ccccc3P(C)(C)=O)n2)c(OC)cc1C#CC1(N(C)C)CC1

>  <IC50>
≥ 250 nM

$$$$
